Where these numbers come from: the Human Domainome abundance scans (Beltran et al. 2025)

# abundance fitness per entry
B1: Histone H1t, residues 44 to 112; numbered along this chain, P22492 (parent)
chain: VSKLITEALSVSQERVGMSLVALKKALAAAGYDVEKNNSRIKLSLKSLVNKGILVQTRGTGASGSFKLS

- Variants of: B1
- measurementNotes: abundance fitness (aPCA) (normalised: wild type 0, dead -1); higher = more abundant; growth selection in yeast, the domain comes from the species named
- conditionsUsed: Homo sapiens

{"itemSequence": "VSKLITEALSVSQERVGMSLVALKKALAAAGYDVEKNNSRIKLSLKSLVNKGILHQTRGTGASGSFKLS [V55H]", "abundance fitness": -0.08}
{"itemSequence": "VSKLITEALSVSQERVGMSLVALKKKLAAAGYDVEKNNSRIKLSLKSLVNKGILVQTRGTGASGSFKLS [A26K]", "abundance fitness": 0.07}
{"itemSequence": "VSKLITEALSVSQERVGMSLVALKKALAAAGYDVEKNNSRIKLSPKSLVNKGILVQTRGTGASGSFKLS [L45P]", "abundance fitness": -0.46}
{"itemSequence": "VSKLITEALSVSQERVGMSLVALKKALAAAGYDVEKNNSRIKLSLKSLVNKGILVQVRGTGASGSFKLS [T57V]", "abundance fitness": -0.052}
{"itemSequence": "VSKLITEALSVSQERVGMSLVALKKALAAAGYDVEKNNSRRKLSLKSLVNKGILVQTRGTGASGSFKLS [I41R]", "abundance fitness": -0.514}
{"itemSequence": "VSKLITEALSVSQERVGMSLVALKKALAAAGYDVEKNNSRIKLSLKVLVNKGILVQTRGTGASGSFKLS [S47V]", "abundance fitness": -0.307}
{"itemSequence": "VSKLITEALSVSQERVGMSLVAFKKALAAAGYDVEKNNSRIKLSLKSLVNKGILVQTRGTGASGSFKLS [L23F]", "abundance fitness": -0.197}
{"itemSequence": "VSKLITEALSVSQERVGMSLVALKKALMAAGYDVEKNNSRIKLSLKSLVNKGILVQTRGTGASGSFKLS [A28M]", "abundance fitness": -0.089}
{"itemSequence": "VSKLITEALSVSQERVGMSLVALKKALAAAGYDVEKNNSRIKLSKKSLVNKGILVQTRGTGASGSFKLS [L45K]", "abundance fitness": -0.859}
